- assayed-system: T1, murine vasopressin V1a receptor (mV1aR) (murine, UniProt Q62463 1-423)
- T1 construct: vasopressin V1a receptor, murine; in membrane preparations; source: HEK293, transiently expressing; membrane preparations
- T1 sequence (Q62463 whole entry): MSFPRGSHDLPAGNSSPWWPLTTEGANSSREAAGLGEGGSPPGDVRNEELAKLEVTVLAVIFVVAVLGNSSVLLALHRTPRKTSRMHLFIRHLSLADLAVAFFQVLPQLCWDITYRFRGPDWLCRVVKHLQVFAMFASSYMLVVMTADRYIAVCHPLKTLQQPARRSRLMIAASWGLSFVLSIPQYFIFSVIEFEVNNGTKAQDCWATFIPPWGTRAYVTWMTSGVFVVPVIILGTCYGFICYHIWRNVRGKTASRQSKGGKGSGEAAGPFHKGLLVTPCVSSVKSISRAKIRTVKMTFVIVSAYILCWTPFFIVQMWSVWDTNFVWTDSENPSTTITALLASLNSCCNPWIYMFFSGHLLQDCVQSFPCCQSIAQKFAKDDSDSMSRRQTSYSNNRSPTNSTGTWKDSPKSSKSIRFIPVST
- assay-comment: radioligand binding; displacement of [3H]-OT or [3H]-VP from membrane preparations of HEK293 cells transiently expressing the murine receptor; dose-response curves in duplicates, at least three independent experiments; Ki >10 µM assigned where <25% of the radioligand was displaced at 10 µM
- details: one partner purified
pKi: −log10 of the molar value. Positions of bridges follow the written chain, without caps; N, C: chain ends. Non-standard residues stand in square brackets, D forms with d. Groups on a side chain read outwards from the residue. Primed or numbered codes have the meaning given here. No end group written: not given here. εdLys = D-Lys linked through its epsilon amine (k^ε); PEG5′ = PEG5 spacer, as named in the construct; Cy3s = Cy3s fluorophore, as named; Orn = NCCC[C@H](N)C(=O)O; Mpa = O=C(O)CCS
Recorded measurements of pKi, one per entry

>  <binder>
CYIQNCPLG (oxytocin, endogenous nonapeptide ligand of OTR; numbers count on: the mature nonapeptide) [Oxytocin (OT)]

>  <relation>
=

>  <pKi>
5.85

$$$$
>  <binder>
[Mpa]INYQCP[Orn]([dD-PEG5′-εdLys-Cy3s])G (disulfide 1-6 (inferred)) [scrambled cyclic tracer dCINYQCP(Orn)G‐[d‐PEG5‐k^ε‐Cy3s]^8]

>  <relation>
<

>  <pKi>
5.00

$$$$
>  <binder>
CYFQNCPRG (vasopressin (arginine at position 8), endogenous nonapeptide; numbers count on: the mature nonapeptide) [Vasopressin (VP)]

>  <relation>
=

>  <pKi>
9.00

$$$$
